IC50 of inhibition of pHer3 (MCF7 cells stimulated with rhNRG1-β1, ELISA) values by entry
# experimental target: human Her3 receptor on cells (T47D, MCF7) (human, UniProt P21860 20-1342)
# Sequence (P21860 20-1342 limits assumed, stated change not applied): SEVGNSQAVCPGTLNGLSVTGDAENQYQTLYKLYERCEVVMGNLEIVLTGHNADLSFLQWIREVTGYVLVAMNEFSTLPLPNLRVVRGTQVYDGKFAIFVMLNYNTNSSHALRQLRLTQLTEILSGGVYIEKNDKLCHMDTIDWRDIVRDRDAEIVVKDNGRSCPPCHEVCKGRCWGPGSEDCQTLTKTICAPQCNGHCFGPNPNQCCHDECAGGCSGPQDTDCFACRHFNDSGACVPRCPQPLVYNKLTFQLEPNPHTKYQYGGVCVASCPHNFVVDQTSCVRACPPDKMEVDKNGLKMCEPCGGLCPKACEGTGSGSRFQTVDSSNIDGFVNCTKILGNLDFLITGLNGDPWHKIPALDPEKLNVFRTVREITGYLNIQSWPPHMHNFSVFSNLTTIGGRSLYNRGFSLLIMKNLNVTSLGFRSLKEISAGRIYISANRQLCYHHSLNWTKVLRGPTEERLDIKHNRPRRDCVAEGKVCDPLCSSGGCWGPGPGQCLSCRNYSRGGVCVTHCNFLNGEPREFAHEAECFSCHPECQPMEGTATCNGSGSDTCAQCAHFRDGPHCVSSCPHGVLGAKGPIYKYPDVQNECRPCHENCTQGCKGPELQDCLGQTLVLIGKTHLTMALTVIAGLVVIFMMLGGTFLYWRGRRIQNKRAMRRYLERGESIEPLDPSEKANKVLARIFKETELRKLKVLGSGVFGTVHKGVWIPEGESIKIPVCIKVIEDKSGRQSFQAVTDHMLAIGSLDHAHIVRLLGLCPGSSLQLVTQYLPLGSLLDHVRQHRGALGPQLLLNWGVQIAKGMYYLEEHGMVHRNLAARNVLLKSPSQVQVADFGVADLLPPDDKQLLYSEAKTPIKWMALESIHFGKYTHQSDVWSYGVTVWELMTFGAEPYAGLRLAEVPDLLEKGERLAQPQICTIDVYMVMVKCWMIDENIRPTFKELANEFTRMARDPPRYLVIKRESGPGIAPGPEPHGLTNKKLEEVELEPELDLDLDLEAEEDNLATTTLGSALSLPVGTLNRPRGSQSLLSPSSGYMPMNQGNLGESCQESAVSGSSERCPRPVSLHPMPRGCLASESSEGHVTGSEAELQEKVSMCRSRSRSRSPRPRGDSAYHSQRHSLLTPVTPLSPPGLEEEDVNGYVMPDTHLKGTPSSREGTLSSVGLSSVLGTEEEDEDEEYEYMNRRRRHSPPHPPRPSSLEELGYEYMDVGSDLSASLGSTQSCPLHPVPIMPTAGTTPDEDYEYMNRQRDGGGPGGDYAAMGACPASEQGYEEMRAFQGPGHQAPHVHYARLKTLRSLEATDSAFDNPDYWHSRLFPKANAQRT
# protocol summary: cell-based or functional assay
Number in nM, nothing else.

Here are 2 binders together with their reported answers.
* 588F41 (antibody, V domains shown, Purified mouse IgG from a hybridoma; also called 588F41-HC; 588F41-LC) VH: EVQLQQSGPELVKPGASVKMSCKASGYTFTSYVMHWVKQKPGQGLEWLGYINPYNDGTKYNEKFKGMATLTSDKSSSTAYMELISLTSEDSAVYYCAREASYGNPFAYWGQGTLVTVSA VL: DIVMTQSPASLSASVGETVTITCRTSENIYSYLAWFQQKQGNSPQLLVYNTKTLAEGVPSRFSGSGSGTQFSLKINSLQPEDFGNYYCQHHYDTPWTFGGGTKLEIKR | 0.66
* PO-1C9-C4 (antibody, V domains shown, Purified mouse IgG from a hybridoma; also called PO-1C9-C4-HC; PO-1C9-C4-LC) VH: QVQLQQPGSELVRPGASVKLSCKASGYTFTIFWIHWVKQRPGQGLEWIGNIYPGSGGTNYDEKFKSKATLTVDTFSSTAYMQLSSLTSEDSAVYYCTRWGTGKDYWGQGTTLTVSS VL: DIVLTQSPAIMSASPGEKVTMTCRARSSVSSSYLHWYQQKPGSSPKLWIYSTSNLALGVPARFSGSGSGTSYSLTISSVEAEDAATYYCQQYDSSPFTFGTGTKLEIKR | 6.99

Using known records, supply IC50 of inhibition of pHer3 (MCF7 cells stimulated with rhNRG1-β1, ELISA) for PO-1G2-B6 (antibody, V domains shown, Purified mouse IgG from a hybridoma; also called PO-1G2-B6-HC; PO-1G2-B6-LC) VH: EVQLQQSGPELVKPGASVKISCKASGYSFTGYHIHWMKQSHVESLEWIGRINPYSGVTDYNQNFKDKANLTVDQSSSTAYMELHSLTSEDSAFYYCARTDYYGPWFAYWGQGTLVTVSA VL: DIQMTQSPLSLPVSLGDQASISCRSSPSLVHSNGNTYLHWYLQKPGQSPKLLIYTVSNRFSGVPDRFSGSGSGTDFTLKINRVEAEDLGVYFCSQTTHVPWTFGGGTKLEIKR
2.91

Using known records, supply IC50 of inhibition of pHer3 (MCF7 cells stimulated with rhNRG1-β1, ELISA) for PO-3H7-E3 (antibody, V domains shown, Purified mouse IgG from a hybridoma; also called PO-3H7-E3-HC; PO-3H7-E3-LC) VH: EVQLQQSGAELVKPGASVKISCKASGYSFTGYYMNWVKQSHGKSLEWIGNINPYYGGSNYNQKFKARATLTVDKSSSTAYMQLNSLTSEDSAVYYCARKGDLYYSMDYWGQGTSVTVSS VL: DIVMTQTPLSLPVSLGDQASISCRSSQSIVHSNGNTYLEWYLQKPGQSPKLLIYKVSNRFSGVPDRFSGSGSGTDFTLKISRVEAEDLGIYYCFQGSHVPPTFGGGTKLELKR
4.98

Using known records, supply IC50 of inhibition of pHer3 (MCF7 cells stimulated with rhNRG1-β1, ELISA) for 588F42 (antibody, V domains shown, Purified mouse IgG from a hybridoma; also called 588F42-HC; 588F42-LC) VH: EVQLQQSGPELVKPGASVKMSCKASGYTFTSYVMHWVKQKPGQGLEWLGYINPYNDGTKYNEKFKGKATLTSDKSSSTAYMELISLTSEDSAVYYCAREASYGNPFAYWGQGTLVTVSA VL: DIVMTQSPASLSASVGETVTITCRTSENIYSYLAWFQQKQGNSPQLLVYNTKTLAEGVPSRFSGSGSGTQFSLKINSLQPEDFGNYYCQHHYDTPWTFGGGTKLEIK
1.04
